Molecular target: F508del/I539T CFTR (Homo sapiens (Human), UniProt P13569, DEL508-508/I539T)
Sequence (P13569 other isoform, or with tags, fused parts or gaps I539T/del F508-F508): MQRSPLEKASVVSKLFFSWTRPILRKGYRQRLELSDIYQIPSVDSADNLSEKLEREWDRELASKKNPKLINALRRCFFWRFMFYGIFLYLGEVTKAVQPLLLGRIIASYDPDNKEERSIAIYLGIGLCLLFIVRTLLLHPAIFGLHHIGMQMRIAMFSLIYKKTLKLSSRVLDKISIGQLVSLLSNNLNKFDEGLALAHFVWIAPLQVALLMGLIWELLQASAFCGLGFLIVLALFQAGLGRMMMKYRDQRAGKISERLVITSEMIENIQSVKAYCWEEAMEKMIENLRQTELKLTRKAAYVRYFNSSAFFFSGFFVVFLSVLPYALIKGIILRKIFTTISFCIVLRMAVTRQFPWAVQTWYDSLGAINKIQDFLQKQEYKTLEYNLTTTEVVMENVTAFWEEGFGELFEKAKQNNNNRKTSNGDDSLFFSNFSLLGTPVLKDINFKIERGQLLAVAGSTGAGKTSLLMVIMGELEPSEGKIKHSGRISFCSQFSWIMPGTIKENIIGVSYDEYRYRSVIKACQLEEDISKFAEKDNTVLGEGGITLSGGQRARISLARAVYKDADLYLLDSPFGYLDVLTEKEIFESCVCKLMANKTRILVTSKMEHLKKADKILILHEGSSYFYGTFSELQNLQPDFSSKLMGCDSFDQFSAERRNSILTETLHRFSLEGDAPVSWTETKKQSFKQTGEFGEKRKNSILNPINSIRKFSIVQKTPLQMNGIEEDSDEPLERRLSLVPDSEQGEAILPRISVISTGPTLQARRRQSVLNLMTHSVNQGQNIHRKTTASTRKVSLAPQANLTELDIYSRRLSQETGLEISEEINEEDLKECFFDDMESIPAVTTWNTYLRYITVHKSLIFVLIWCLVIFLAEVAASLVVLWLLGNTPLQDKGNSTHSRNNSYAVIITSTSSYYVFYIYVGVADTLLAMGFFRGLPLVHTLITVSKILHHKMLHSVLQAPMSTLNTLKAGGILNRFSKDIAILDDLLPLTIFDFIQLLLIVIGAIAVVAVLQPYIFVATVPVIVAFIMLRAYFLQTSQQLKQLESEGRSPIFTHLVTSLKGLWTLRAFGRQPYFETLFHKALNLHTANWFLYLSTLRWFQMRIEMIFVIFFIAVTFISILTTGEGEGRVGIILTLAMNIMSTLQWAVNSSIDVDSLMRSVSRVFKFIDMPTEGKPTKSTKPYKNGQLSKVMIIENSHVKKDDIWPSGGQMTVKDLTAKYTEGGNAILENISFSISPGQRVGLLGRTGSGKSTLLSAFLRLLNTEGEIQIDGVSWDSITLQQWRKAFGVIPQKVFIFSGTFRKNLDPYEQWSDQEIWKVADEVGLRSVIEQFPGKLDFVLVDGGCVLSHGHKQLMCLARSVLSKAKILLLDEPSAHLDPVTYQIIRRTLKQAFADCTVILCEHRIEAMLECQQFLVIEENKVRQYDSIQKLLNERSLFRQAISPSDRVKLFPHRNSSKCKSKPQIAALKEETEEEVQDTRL
Test: YFP-halide influx assay (YHA) I539T
Details: HEK293, 24 h compound, forskolin 10.67 μM + GLPG1837 0.5 μM; read-out: IEC IC50/EC50 (YHA I539T; head over this column printed as YHA G550E)
QUANTITY: EC50 (nM)

A: COCCS(=O)(=O)NC(=O)c1cc(N2CCC(OC)CC2)c2c(C3CCC3)nn(-c3ccccc3)c2n1
B: COCCS(=O)(=O)NC(=O)c1cc(N2CCC(COC)CC2)c2c(C(C)C)nn(-c3ccc(F)cc3)c2n1
Lowest EC50? choose A or B Please identify the chosen entry by its label. B

* * *

Target: UniProt:P13569
Assay: TruBind back scattering interferometry (BSI) direct binding
Settings: HEK293 WT CFTR membrane fractions, 4 hours room temperature, one-site binding fit
QUANTITY: pKd
Just the number, please; pKd means minus log10 of the concentration in mol/L.

Please report the recorded pKd for "CC(C)c1nn(-c2cc[nH]c(=O)c2)c2nc(C(=O)O)cc(-c3ccc(N(C)C)cc3)c12" . 5.02

* * *

Molecular target: F508del/G550E CFTR (Homo sapiens (Human), UniProt P13569, DEL508-508/G550E)
Sequence (P13569 other isoform, or with tags, fused parts or gaps G550E/del F508-F508): as the sequence (P13569 other isoform, or with tags, fused parts or gaps I539T/del F508-F508) above, with T538I, G549E counted along it
Experiment: YFP-halide influx assay (YHA) G550E
Format: cell-based
Details: HEK293, 24 h compound, forskolin 10.67 μM + GLPG1837 0.5 μM; read-out: IEC IC50/EC50 (YHA G550E)
QUANTITY: pEC50
Just the number, please; pEC50 means minus log10 of the concentration in mol/L.

Please report the recorded pEC50 for "COCCS(=O)(=O)NC(=O)c1cc(N2CCC(COC)CC2)c2c(C(C)C)nn(-c3ccc(F)cc3)c2n1" . 7.40

The reported measurements were obtained from patent US10130622B2.
